These entries and their values trace back to patent US8399465B2.

A collection of compounds and their measured pIC50
Test system: LTB4 production in murine blood (LTA4H)
Experiment: LTB4 production by calcium ionophore-stimulated murine blood for LTA4H inhibitor activity
Format: cell-based, CD-1 mice
Conditions: Mus musculus; murine blood diluted 1 in 15, A23187 stimulated; single determination or average; mark after value = form tested: ′ free base, ″ hydrochloride, ^ formate; read-out: IC50
Procedure: Assay 2: LTB4 Production by Calcium Ionophore-Stimulated Murine Blood for LTA4H Inhibitor Activity CD-1 mice were sacrificed, and blood was collected in heparin-containing syringes by cardiac puncture. […] The reaction was terminated by centrifugation (833×g, 10 min at 4° C.), and supernatants were analyzed for LTB4 by a commercially available enzyme-linked immunoassay (Cayman Chemical Co.) according to the manufacturer's instructions. […]
Formally, pIC50 is defined as -log10 of the concentration c, with c in mol/L.

Sample answers from the record:
COMPOUND	ASSAYED_TARGET	NUMERIC_VALUE
O=C1CCCN1C1CCN(Cc2c[nH]c3cc(Oc4nc5ncccc5s4)ccc23)CC1 [Example 20]	LTB4 production in murine blood (LTA4H)	7.09
CN(Cc1ccccc1)Cc1cc2cc(Oc3nc4ncccc4s3)ccc2o1 [Example 114]	LTB4 production in murine blood (LTA4H)	7.07

Please find the next compound below.
Request: Param readout = pIC50; param system = LTB4 production in murine blood (LTA4H); param query = c1ccc2sc(Oc3ccc4c(CN5CCCC5)c[nH]c4c3)nc2c1 [Example 1] ; response: value
Result: 7.17

* * *

Test system: LTB4 production in murine blood (LTA4H)
Assay: LTB4 production by calcium ionophore-stimulated murine blood for LTA4H inhibitor activity
Format: cell-based, CD-1 mice
Settings: Mus musculus; murine blood diluted 1 in 15, A23187 stimulated; single determination or average; mark after value = form tested: ′ free base, ″ hydrochloride, ^ formate; read-out: IC50
PARAMETER: pIC50
Formally, pIC50 is defined as -log10 of the concentration c, with c in mol/L.

COMPOUND	pIC50
CS(=O)(=O)N1CCC(N(Cc2coc3cc(Oc4nc5ncccc5s4)ccc23)C2CC2)CC1	7.05
NC(=O)C1CCN(Cc2c[nH]c3cc(Oc4nc5ncccc5s4)ccc23)CC1	6.93

Please find the next compound below.
Request: Entry under review: NC(=O)N1C[C@@H]2C[C@H]1CN2Cc1cc2cc(Oc3nc4ncccc4s3)ccc2o1 . Reported pIC50?
Result: 6.80

* * *

Test system: LTB4 production in murine blood (LTA4H)
Test: LTB4 production by calcium ionophore-stimulated murine blood for LTA4H inhibitor activity
Format: cell-based, CD-1 mice
Conditions: Mus musculus; murine blood diluted 1 in 15, A23187 stimulated; single determination or average; mark after value = form tested: ′ free base, ″ hydrochloride, ^ formate; read-out: IC50
Counter-ions that a name gives are not always drawn.
A collection of compounds and their measured pIC50
Formally, pIC50 is defined as -log10 of the concentration c, with c in mol/L.

COMPOUND	NUMERIC_VALUE
O=C(c1ccoc1)N1CC2CN(Cc3coc4cc(Oc5nc6ncccc6s5)ccc34)CC2C1 (stereo not drawn)	6.72
CC(=O)N1C[C@H]2CC[C@@H](C1)N2Cc1cc2ccc(Oc3nc4ncccc4s3)cc2o1	6.66
COCCN(C)Cc1coc2cc(Oc3nc4ncccc4s3)ccc12	7.31
NC(=O)N1C[C@@H]2CC[C@H]1CN2Cc1coc2cc(Oc3nc4ncccc4s3)ccc12 [Example 241, formate]	7.16
CC(=O)N1C[C@@H]2C[C@H]1CN2Cc1coc2cc(Oc3nc4ncccc4s3)ccc12	7.59

Please find the next compound below.
Request: Entry under review: NC(=O)N1C[C@@H]2C[C@H]1CN2Cc1coc2cc(Oc3nc4ncccc4s3)ccc12 [Example 209, formate] . Reported pIC50?
Result: 7.27
